Each recorded value in this set is attributed to ChEMBL document CHEMBL2440101.

- Tested on: MCF7
- testName: Cytotoxicity against human MCF7 cells after 96 hrs by MTT assay
- Type: functional, cell-based
- particulars: MCF7, 96 h
readoutLabel: IC50 (µM)
Answer format: numeric, µM implied, no suffix.

compound	readoutLabel	val
COc1ccc(-c2c3cc(O)c(OC)cc3cc3c2[nH]c(=N)n3C)cc1 [KEALIININE A]	IC50	23.4
COC1=C(OC)C(=O)c2c(cc3c(ncn3C)c2-c2ccc(OC)cc2)C1=O	IC50	41.1
COc1ccc(-c2c3cc(OC)c(OC)cc3cc3c2nc(N)n3C)cc1	IC50	28.8
COC1=C(OC)C(=O)c2c(cc3c(nc(N)n3C)c2-c2ccc(OC)cc2)C1=O	IC50	43.8

Exercise: Which IC50 is reported for this compound? "COc1ccc(-c2c3cc(OC)c(OC)cc3cc3c2ncn3C)cc1"
Key: 28

Exercise: Which IC50 is reported for this compound? "COc1ccc(-c2c3cc(OC)c(OC)c(OC)c3cc3c2ncn3C)cc1"
Key: 68.2

Exercise: Which IC50 is reported for this compound? "COC1=C(OC)C(=O)c2c(cc3c([nH]c(=O)n3C)c2-c2ccc(OC)cc2)C1=O"
Key: 91.9

Exercise: Which IC50 is reported for this compound? "COc1ccc(-c2c3[nH]c(=O)n(C)c3cc3cc(OC)c(OC)c(OC)c23)cc1"
Key: 29.9

Exercise: Which IC50 is reported for this compound? "COc1ccc(-c2c3ncn(C)c3cc3cc(OC)c(OC)c(OC)c23)cc1"
Key: 99.8

Exercise: Which IC50 is reported for this compound? "COc1ccc(-c2c3cc(OC)c(OC)c(OC)c3cc3c2nc(N)n3C)cc1"
Key: 22.7

Exercise: Which IC50 is reported for this compound? "COc1ccc(-c2c3cc(OCc4ccccc4)c(OC)cc3cc3c2ncn3C)cc1"
Key: 92
